system: human IBAT (Homo sapiens)
Construct: expressed in transfected cells; host or cells: Baby hamster kidney (BHK) cells, clone H14
Sequence (Q12908 whole entry): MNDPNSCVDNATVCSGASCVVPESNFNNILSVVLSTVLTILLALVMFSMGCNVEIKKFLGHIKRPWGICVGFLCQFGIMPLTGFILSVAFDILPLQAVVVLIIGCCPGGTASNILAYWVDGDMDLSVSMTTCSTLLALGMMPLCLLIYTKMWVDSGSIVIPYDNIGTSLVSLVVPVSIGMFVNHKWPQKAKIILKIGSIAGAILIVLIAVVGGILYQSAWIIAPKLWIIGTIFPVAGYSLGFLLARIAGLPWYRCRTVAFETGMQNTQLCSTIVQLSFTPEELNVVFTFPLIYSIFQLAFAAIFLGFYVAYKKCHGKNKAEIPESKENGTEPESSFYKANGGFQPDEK
procedureSummary: In vitro assay of IBAT-mediated uptake of [14C]-taurocholate (TC) in H14 cells
Format: cell-based
conditionInfo: read-out: Human TC IC50
measurementLabel: log10 IC50 (log10 of the value in µM)
Scale: log10; quantity: IC50; unit before log: µM

[[record]]
molecule = "CCCCC1(CCCC)CS(=O)(=O)c2c(cccc2S(C)(=O)=O)C(c2ccc(OC)cc2)C1O (stereo not drawn)"
obsvalue = -0.72

[[record]]
molecule = "CCCCC1(CCCC)CS(=O)(=O)c2ccc(N(C)C)cc2C(c2cccc(OCCOCCOCC[n+]3ccc(N4CCCC4)cc3)c2)C1O (stereo not drawn)"
obsvalue = -2.10

[[record]]
molecule = "CCCCC1(CC)CS(=O)(=O)c2ccc(N(C)C)cc2C(c2ccc(OS(=O)(=O)CC34CCC(CC3=O)C4(C)C)c(F)c2)C1O (stereo not drawn)"
obsvalue = -1.40

[[record]]
molecule = "CCCCC1(CCCC)CS(=O)(=O)c2ccc(N(C)C)cc2C(c2cccc(O)c2)C1O (stereo not drawn)"
obsvalue = -2.14


Now look at this entry.
The reported human IBAT (Homo sapiens) log10 IC50 of CCCCC1(CCCC)CS(=O)(=O)c2ccc([N+](C)(C)C)cc2C(c2ccc(F)c(F)c2)C1O (stereo not drawn) is -0.46
